Source of measurements: BigSolDB 2.1

- Assay Setup: in water, 313.15 K
Property Name: solubility (mole fraction)
Form rule: numeric answer, no unit written next to it.

Asked: Given the molecule [NH3+]O.[NH3+]O.[O-]n1nnnc1-c1nnnn1[O-] , what is its reported solubility (mole fraction)?
Given back: 4.17e-05

* * *

- Assay Setup: in DMSO, 318.15 K
Property Name: solubility (mole fraction)
Form rule: numeric answer, no unit written next to it.

Asked: Given the compound [NH3+]O.[NH3+]O.[O-]n1nnnc1-c1nnnn1[O-] , what is its reported solubility (mole fraction)?
Given back: 0.00191

* * *

- Assay Setup: in DMSO, 293.15 K
Property Name: solubility (mole fraction)
Form rule: numeric answer, no unit written next to it.

Asked: Given the compound [NH3+]O.[NH3+]O.[O-]n1nnnc1-c1nnnn1[O-] , what is its reported solubility (mole fraction)?
Given back: 0.00122
